The values you see were collected from the RNAGym collection of RNA variant scans (doi:10.1126/science.aae0568).

B1: tRNA (parent)
chain: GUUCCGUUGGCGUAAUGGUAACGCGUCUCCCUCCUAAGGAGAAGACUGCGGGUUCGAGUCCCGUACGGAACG

variants of: B1; assay: yeast fitness relative to wild type (ratio to wild type); higher = fitter; tRNA-Arg(CCU), competitive growth, 37 C, YPD
Fewer inactive variants are shown than the library holds.
MEASURED_METRIC: yeast fitness

INSERT INTO measurements (sequence_content, measured_metric, readout_qualifier, value) VALUES
  ('GUUCGGUUGAGGUAAGGGUAACGCGUCUCCCUGCUAAGGAGAAGACUGCGGGUUCGAGUCCCGUACGGAACG', 'yeast fitness', '=', 0.551),
  ('GUUCCGUUGGCGUAAUGAUAUCGCGUCUCCCACCUAAGGAGAAGACUGCGGGUUCGAGUCCGGUGCGGAACG', 'yeast fitness', '≤', 0.5),
  ('GUUCCGUUGGCGUAAUCGUAACGCGUCUUCCUCCUACGGAGAAGACUGCGGGUUCGAGUCCCGUACGGUACG', 'yeast fitness', '≤', 0.5),
  ('GUUCCGUUGGCAUAAUGGUAACACGUCGCCCUCCUAAGGAGAAGACUGUGGGUUCCAGUCCCGUUCGGAACG', 'yeast fitness', '=', 0.526),
  ('GUUCCGUUGGUGUAAUGGUAAUGCGUCUCCCUCCUAAGGAGAAGACUGCGGGUUCGAGUCCCGUAUGGACCG', 'yeast fitness', '≤', 0.5),
  ('GUUCCGUUGGCGUAAUGGUAACGCGUCUCGCUCCUAAGGAGAAGACUGCGGGUUCGAGUUCCGUGCGGAACG', 'yeast fitness', '≤', 0.5),
  ('GUCCCGUUGGCGUAAUGGUAACGCGUCCCCCUCCUAAGGAGAAGACUGCGGGUUCGAGUCCCGUACGGAACG', 'yeast fitness', '=', 1.08),
  ('GUUCCGUUGGCCUAAUGGUAAGGCGUCUCCCUCCUAAGGAGAAGACUGCGGGUUUGAGUCCCGUACGGAACG', 'yeast fitness', '=', 0.581),
  ('GUUCAGUUGGCGUAAUGGUAACGCGUCUCCCUCCUAAGGCGAAGAUUGCGGCUUCGAGUCCCGUACGGAACG', 'yeast fitness', '=', 0.547),
  ('GUUCCGUUGGCGUCAUGGUAACGCGUCUCCCUCCUAAGGAGAAGACUGCGGGUUCGAGUCCCGUACGGCACG', 'yeast fitness', '=', 0.654),
  ('GUUCGGUUGGCGUAAUGGUGACGCGUCUCCCUCCUCAGGAGAAGACUGCGGGUUCGAGUCCCGUACGGACCG', 'yeast fitness', '≤', 0.5),
  ('GUUCAGUUGGCGUUCUGGUAACGGGACUCCCUCCUAAGGAGAAGACUGCGGGUUCGAGUCCCGUACGGAACG', 'yeast fitness', '=', 0.78),
  ('GUUCCGUUGGCGUAAUGGCAACGCGUCUCCCUCCUAAGGAGAAGACUGCAGGUUCGAGUCCCGUACGGAACG', 'yeast fitness', '=', 0.833),
  ('GUACUGUUGGCGUAAUGGUAACGCGUCUCCAUCCUAAGGAGAAGCGUGCGGCUUCGAGUCCCGUACGGAACG', 'yeast fitness', '≤', 0.5),
  ('GUACCGCUGGCGUAAUGGUAACGCGUCUCCCUCCUAAGGAGAAGACUGCGGGUUCGAGUCCCGUACGGAACG', 'yeast fitness', '=', 0.839),
  ('GUUCCGUUGGCGUAAUGGUAACGCCUCUCCCGCCUAAGGAAAAGACUGCGGGUUCGAGUCCCGUACGGAACG', 'yeast fitness', '=', 0.565),
  ('GUUCCGUUGGCGUCAUGGUAACGCGUCUCCCUCCUGAGGAGAUGACUGCGGGUUCGAGUCCCGUACGAAACG', 'yeast fitness', '=', 0.522),
  ('GGUCCGUUGGCGUAAUGGUAAUGCGUCUCCCUCCUAAGGAGAAGACUGCGGGUUCGAGUCCCGUAUGGAACG', 'yeast fitness', '=', 0.563),
  ('GUUCCGUUGGCGUAAUGGUAACGCGUCUCUCUCCUAAGGCGAAGACUGCGGGUUCGAGCCCCGUGCGGAACG', 'yeast fitness', '≤', 0.5),
  ('GUACCGUUGGCGUAAUGGUAACGCGUCUCCCUCCUAAGGAGAAGACUGCCCGUUCAAGUCCCGUACGGAACG', 'yeast fitness', '≤', 0.5),
  ('GUUCCCUUGGCAUAAUGGUAACGCGUCUCCCUCCUAAGGAGAAGACUGCGCGUUCGAGUCCCGUAUGGAACG', 'yeast fitness', '≤', 0.5),
  ('GUUCCGUUGGCGUAACGGUAACGCGUCUCCCUCCUAAGGAGAAGACUGGGGGUUCGAGUCCUGUACGGAACG', 'yeast fitness', '=', 0.528);
